Examples of compounds with documented normalized growth follow.
- assay.method.text: chemical genetic growth profiling, strain panel (AID 1159580);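 note: tested at 20 µM; growth read once vehicle control cultures reached saturation at 30 °C; 1 = growth at the plate median or of vehicle wells; lower values mean less growth of the strain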
- condition.info: S. cerevisiae deletion strains, growth OD, locus YJL157C, strain FAR1, active compounds read low
The whole screen tested about 5,500 compounds, of which about 2,000 (36%) were called active. Not shown: some 18% with an inconclusive outcome. The list shows a part of the results.
measurement.type: normalized growth

                                    compound  assay_result
 0                 COc1ccc2nc3ccccc3c(N)c2c1         0.176
 1  OC1CCN(c2cc(C(F)(F)F)nc3cc(Cl)cc(Cl)c23)CC1         0.972
 2       CCCc1nc(-c2ccccn2)[nH]c(=O)c1CC1CC1         0.928
 3          O=C(NCCc1ccncc1)c1ccc(Cl)c(Cl)c1          0.96
 4  Cc1nc(-c2ccccn2)[nH]c(=O)c1Cc1c(Cl)cccc1Cl         0.823
 5  O=C(Nc1ccccc1Sc1ccc([N+](=O)[O-])cc1[N+](=O)[O-])C(Cl)(Cl)Cl          0.97
 6                 Brc1ccc2[nH]c3c(c2c1)CCC3          0.74
 7    O=C(c1ccc(Cl)cc1)N(Cc1ccccc1)Cc1cccnc1         0.845
 8  COc1cccc(NC(=S)NC2CC(C)CC(C)(C)C2)c1 (configuration not stated)         0.976
 9         Nc1ccccc1C(=O)N/N=C\c1cc(Br)ccc1O         0.947
10        Cc1nc(-c2cccnc2)nc(NCc2ccccc2)c1Cl         0.877
11  CC(C)(C)C(=O)N(Cc1cccnc1)Cc1ccc(Cl)cc1Cl         0.909
